Reported EC50 values follow for various binders
- TARGET OR SYSTEM: T1, Avi-human CD38 ECD (human, UniProt P28907 43-300)
- T1 construct: eluted as a monomer; also called hCD38; huCD38
- ASSAY NAME: ELISA on human CD38 ECD; class A = EC50 0.02 nM - 0.1 nM (table legend)

# lookup: EC50 of h18E4-19 (antibody, V domains shown, also called hu18E4-19; humanized h18E4-19 antibody) VH: EVQLLESGGGLVQPGGSLRLSCAASGFSFNNYWIIWIRQAPGKGLEWVAAIYSPSGDIKYYADWAKGRFTVSKDNSKNTVYLQMNSLRAEDTAVYYCARELSGSSYEGYFESWGQGTLVTV VL: DIQLTQSPSTLSASVGDRVTITCRSSQSVYGHNWLAWYQQKPGKAPKLLMYRASNLASGVPSRFSGSGSGTEFTLTISSVQPDDFATYYCQGYYSGGSYAFGGGTKVEIK
0.02 to 0.1 nM

# lookup: EC50 of h18E4-19 LC Q89A (antibody, V domains shown, Alanine scan variant of h18E4-19; Kabat numbers, not linear positions of the entry) VH: EVQLLESGGGLVQPGGSLRLSCAASGFSFNNYWIIWIRQAPGKGLEWVAAIYSPSGDIKYYADWAKGRFTVSKDNSKNTVYLQMNSLRAEDTAVYYCARELSGSSYEGYFESWGQGTLVTV VL: DIQLTQSPSTLSASVGDRVTITCRSSQSVYGHNWLAWYQQKPGKAPKLLMYRASNLASGVPSRFSGSGSGTEFTLTISSVQPDDFATYYCAGYYSGGSYAFGGGTKVEIK
0.02 to 0.1 nM

# lookup: EC50 of h18E4-19 HC S97A (antibody, name in Kabat numbering, V domains shown, Alanine scan variant of h18E4-19; Kabat numbers, not linear positions of the entry) VH: EVQLLESGGGLVQPGGSLRLSCAASGFSFNNYWIIWIRQAPGKGLEWVAAIYSPSGDIKYYADWAKGRFTVSKDNSKNTVYLQMNSLRAEDTAVYYCARELAGSSYEGYFESWGQGTLVTV VL: DIQLTQSPSTLSASVGDRVTITCRSSQSVYGHNWLAWYQQKPGKAPKLLMYRASNLASGVPSRFSGSGSGTEFTLTISSVQPDDFATYYCQGYYSGGSYAFGGGTKVEIK
0.02 to 0.1 nM

# lookup: EC50 of h18E4-19 HC S100A (antibody, name in Kabat numbering, V domains shown, Alanine scan variant of h18E4-19; Kabat numbers, not linear positions of the entry) VH: EVQLLESGGGLVQPGGSLRLSCAASGFSFNNYWIIWIRQAPGKGLEWVAAIYSPSGDIKYYADWAKGRFTVSKDNSKNTVYLQMNSLRAEDTAVYYCARELSGSAYEGYFESWGQGTLVTV VL: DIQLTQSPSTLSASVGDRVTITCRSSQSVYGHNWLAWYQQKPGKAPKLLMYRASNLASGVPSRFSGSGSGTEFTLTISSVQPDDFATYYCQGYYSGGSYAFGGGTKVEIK
0.02 to 0.1 nM
